Recorded Total ng values for a group of substances are listed next.
TESTED TARGET: rFVIII (Homo sapiens, UniProt P00451)
Sequence (P00451 20-2351): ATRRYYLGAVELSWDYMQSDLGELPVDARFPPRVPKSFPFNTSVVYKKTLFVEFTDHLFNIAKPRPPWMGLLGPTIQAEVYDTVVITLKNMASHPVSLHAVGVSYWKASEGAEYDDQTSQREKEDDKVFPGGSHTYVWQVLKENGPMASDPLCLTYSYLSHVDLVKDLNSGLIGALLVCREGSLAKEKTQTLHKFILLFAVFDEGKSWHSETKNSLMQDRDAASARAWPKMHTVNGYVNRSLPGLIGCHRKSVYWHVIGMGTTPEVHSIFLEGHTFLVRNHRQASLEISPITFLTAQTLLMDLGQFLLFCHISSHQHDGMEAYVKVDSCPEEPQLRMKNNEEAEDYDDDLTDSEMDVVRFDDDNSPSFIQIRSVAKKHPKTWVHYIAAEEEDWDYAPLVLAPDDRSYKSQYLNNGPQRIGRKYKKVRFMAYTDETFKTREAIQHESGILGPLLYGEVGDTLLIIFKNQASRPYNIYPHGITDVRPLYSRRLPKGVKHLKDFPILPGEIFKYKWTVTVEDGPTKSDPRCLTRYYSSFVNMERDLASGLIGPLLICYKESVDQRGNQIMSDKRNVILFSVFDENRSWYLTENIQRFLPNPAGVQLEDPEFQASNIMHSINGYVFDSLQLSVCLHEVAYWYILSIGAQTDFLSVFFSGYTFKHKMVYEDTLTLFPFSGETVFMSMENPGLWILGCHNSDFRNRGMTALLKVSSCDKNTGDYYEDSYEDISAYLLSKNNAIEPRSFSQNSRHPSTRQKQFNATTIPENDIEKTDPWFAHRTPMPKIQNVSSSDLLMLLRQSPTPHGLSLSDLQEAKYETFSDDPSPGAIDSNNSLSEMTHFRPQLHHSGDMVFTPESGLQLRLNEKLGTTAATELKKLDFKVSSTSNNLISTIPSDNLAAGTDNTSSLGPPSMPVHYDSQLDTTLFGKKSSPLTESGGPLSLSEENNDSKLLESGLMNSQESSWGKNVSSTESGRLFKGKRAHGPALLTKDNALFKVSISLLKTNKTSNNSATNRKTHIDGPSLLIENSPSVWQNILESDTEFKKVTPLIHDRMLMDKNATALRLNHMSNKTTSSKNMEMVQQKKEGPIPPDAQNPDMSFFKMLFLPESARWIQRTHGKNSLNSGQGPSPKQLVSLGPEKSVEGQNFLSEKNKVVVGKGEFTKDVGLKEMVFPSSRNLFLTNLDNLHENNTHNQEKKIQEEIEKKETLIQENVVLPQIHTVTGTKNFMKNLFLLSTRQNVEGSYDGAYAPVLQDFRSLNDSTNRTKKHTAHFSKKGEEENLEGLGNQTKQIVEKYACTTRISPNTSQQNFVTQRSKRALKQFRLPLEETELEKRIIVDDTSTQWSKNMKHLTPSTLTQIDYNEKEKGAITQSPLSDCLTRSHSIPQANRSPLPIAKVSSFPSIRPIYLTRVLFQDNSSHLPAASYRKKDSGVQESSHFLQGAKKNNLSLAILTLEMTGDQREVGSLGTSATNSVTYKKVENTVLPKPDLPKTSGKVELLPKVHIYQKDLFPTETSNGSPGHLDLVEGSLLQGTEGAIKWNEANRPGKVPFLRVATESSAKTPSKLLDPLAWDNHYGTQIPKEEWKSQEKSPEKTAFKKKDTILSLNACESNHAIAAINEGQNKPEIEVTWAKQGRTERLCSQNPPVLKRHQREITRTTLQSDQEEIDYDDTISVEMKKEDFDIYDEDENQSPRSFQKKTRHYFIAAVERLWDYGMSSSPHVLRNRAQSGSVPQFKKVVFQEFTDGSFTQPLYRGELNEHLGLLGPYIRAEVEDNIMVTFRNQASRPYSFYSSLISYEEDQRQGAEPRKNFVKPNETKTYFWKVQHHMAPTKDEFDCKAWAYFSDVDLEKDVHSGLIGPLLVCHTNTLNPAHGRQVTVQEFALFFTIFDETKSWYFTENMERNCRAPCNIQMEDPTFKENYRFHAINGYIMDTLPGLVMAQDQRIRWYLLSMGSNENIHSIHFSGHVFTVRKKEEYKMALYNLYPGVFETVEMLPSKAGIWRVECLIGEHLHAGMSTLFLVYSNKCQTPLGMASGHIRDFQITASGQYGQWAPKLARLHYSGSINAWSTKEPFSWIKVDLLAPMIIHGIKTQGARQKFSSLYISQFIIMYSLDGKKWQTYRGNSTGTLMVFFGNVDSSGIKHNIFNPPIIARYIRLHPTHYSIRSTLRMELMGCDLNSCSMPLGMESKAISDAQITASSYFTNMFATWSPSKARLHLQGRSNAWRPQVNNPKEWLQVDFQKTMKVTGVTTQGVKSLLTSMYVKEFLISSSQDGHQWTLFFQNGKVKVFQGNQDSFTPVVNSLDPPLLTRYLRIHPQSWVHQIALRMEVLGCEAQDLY
Sequence (P00451 1668-2351 limits assumed): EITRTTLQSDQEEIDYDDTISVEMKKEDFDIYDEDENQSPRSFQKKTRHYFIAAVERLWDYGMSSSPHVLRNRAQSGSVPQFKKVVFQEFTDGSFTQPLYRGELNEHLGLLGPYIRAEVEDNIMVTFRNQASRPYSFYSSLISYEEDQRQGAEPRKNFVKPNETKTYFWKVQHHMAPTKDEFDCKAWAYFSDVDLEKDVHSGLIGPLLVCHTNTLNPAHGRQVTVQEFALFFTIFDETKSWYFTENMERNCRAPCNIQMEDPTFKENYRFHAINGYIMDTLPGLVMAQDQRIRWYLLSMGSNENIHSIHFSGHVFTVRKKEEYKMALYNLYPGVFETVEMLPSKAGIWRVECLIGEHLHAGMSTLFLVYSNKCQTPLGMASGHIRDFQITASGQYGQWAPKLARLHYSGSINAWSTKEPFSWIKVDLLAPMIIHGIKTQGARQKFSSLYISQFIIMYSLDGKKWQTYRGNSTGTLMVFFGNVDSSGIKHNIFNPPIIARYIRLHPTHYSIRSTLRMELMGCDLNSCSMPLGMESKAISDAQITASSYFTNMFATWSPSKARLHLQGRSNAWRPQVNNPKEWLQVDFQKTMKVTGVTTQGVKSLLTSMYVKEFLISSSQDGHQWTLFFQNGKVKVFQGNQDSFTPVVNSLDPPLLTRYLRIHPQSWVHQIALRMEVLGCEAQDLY
METHOD DESCRIPTION: column format binding assay, rFVIII mass per fraction by sandwich capture ELISA for the light chain
CONDITIONS: Table 6
Number only, in ng; omit the unit.

Solved cases (6 shown):
[[record]]
substance = "21 (HFQIFG) [compound 21]"
test_value = 5510

[[record]]
substance = "19 (FHFGLQ) [compound 19]"
test_value = 4283

[[record]]
substance = "14 (EPRVIG) [compound 14]"
test_value = 8851

[[record]]
substance = "13 (KAQETW) [compound 13]"
test_value = 8863

[[record]]
substance = "20 (WHHHRG) [compound 20]"
test_value = 4966

[[record]]
substance = "9 (FALPGR) [compound 9]"
test_value = 7403


# lookup: Total ng of 10 (AFVRSL) [compound 10] 11272

Now consider 12 (QRLIQF) [compound 12] and answer again. 9579

Now consider 15 (VYGVGG) [compound 15] and answer again. 8427

Now consider 11 (NAIFQW) [compound 11] and answer again. 9641

Now consider 22 (FVFLVR) [compound 22] and answer again. 4504
